- experiment summary: AP1 Signaling Pathway (AID 357);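 also: ME-180 reporter cells stimulated with EGF at its EC50 level; % is scaled to controls: 0 for no effect and ±100 for the full control effect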
- experimental parameters: ME-180 (cervical carcinoma) AP-1-bla reporter, EGF-induced, beta-lactamase ratio, 5 h; at 38 µM (top of the series)
Inconclusive results are not listed.
readout kind: activity change, negative = inhibition (%)
Quick reminder: number only, in %, skip the unit.

Assign activity change, negative = inhibition to the following record: C[C@@H]1C[C@@H]2[C@H]3CCC4=CC(=O)C=C[C@]4(C)[C@]3(F)[C@@H](O)C[C@@]2(C)[C@@]1(O)C(=O)CO
-8.71

Return activity change, negative = inhibition (reported value) for this compound: COc1ccc2[nH]c(I)c(CCNC(C)=O)c2c1
-7.67

Supply measured activity change, negative = inhibition of NCCCCCCNS(=O)(=O)c1cccc2c(Cl)cccc12 in your reply.
7.92

Recall and state the measured activity change, negative = inhibition for C[C@@H](/C=C\c1cccc(Oc2ccc(F)cc2)c1)N(O)C(N)=O .
-29.9

Identify activity change, negative = inhibition associated with the compound COc1ccc(/C=C\C(=O)Nc2ccccc2C(=O)O)cc1OC
-10.8

Using known records, supply activity change, negative = inhibition for CCCn1c(=O)c2[nH]c(-c3ccc(OCC(=O)Nc4ccc(C#N)cc4)cc3)nc2n(CCC)c1=O
-2.44

Name the recorded activity change, negative = inhibition of the item COc1ccccc1N1CCN(C[C@@H](O)COc2cccc3ccccc23)CC1 in your answer.
2.88

Complete the entry with activity change, negative = inhibition for C[C@]12CC3CC(N)(C1)C[C@@](C)(C3)C2
19.1

Output measured activity change, negative = inhibition for this item: C1CCC(N=C(NC23CC4CC(CC(C4)C2)C3)N2CCOCC2)CC1
8.68

Dear colleague, please send me the reported activity change, negative = inhibition for CC(C)(C)NC[C@H](O)COc1cccc2[nH]c(=O)[nH]c12 when you can.
-7.21

Report activity change, negative = inhibition for C=C[C@H](N)CCC(=O)O
6.29

Consider the compound NC(N)=NN=Cc1c(Cl)cccc1Cl and give its recorded activity change, negative = inhibition.
4.65

Look up activity change, negative = inhibition of CCCCOc1cc(C[C@@H]2CNC(=O)N2)ccc1OC and report it.
-11.4

Indicate the recorded activity change, negative = inhibition value for this compound: COc1cccc(OC)c1OCCNC[C@@H]1COc2ccccc2O1
-5.1

Consider the compound S=C(Nc1ccccc1)Nc1nccs1 . State its measured activity change, negative = inhibition.
-16.9

Entry CC#CCOC(=O)c1c(C)nc2sc3c(c2c1N)CC[C@@H](O)C3 needs its activity change, negative = inhibition filled in; supply it.
-15.6

Please give measured activity change, negative = inhibition of the following entry: CC[C@H](C)N(C)C(=O)c1cc2ccccc2c(-c2ccccc2Cl)n1
-18

Fill in activity change, negative = inhibition for record CC(C)NC[C@H](O)c1ccc(NS(C)(=O)=O)cc1
-0.189

Give a short answer stating reported activity change, negative = inhibition for CC(N)=NCCC[C@H](N)C(=O)O .
-5.19

Please list activity change, negative = inhibition recorded for the compound O=C(Nc1cc(C(=O)Nc2ccc(S(=O)(=O)O)cc2S(=O)(=O)O)cc(C(=O)Nc2ccc(S(=O)(=O)O)cc2S(=O)(=O)O)c1)Nc1cc(C(=O)Nc2ccc(S(=O)(=O)O)cc2S(=O)(=O)O)cc(C(=O)Nc2ccc(S(=O)(=O)O)cc2S(=O)(=O)O)c1
5.96

Indicate its recorded activity change, negative = inhibition; the compound in question is NS(=O)(=O)c1cc2c(cc1Cl)N[C@@H]([C@@H]1C[C@@H]3C=C[C@H]1C3)NS2(=O)=O
-0.109

Assign activity change, negative = inhibition to the following record: CO[C@]1(C2=NCCN2)COc2ccccc2O1
-14

Return reported activity change, negative = inhibition. Input compound: N[C@H](Cc1ccc(Cl)cc1)C(=O)O
25.5

Could you please provide reported activity change, negative = inhibition for COc1[nH]c2ccc(F)cc2c1C(=O)OCC1CCN(CCNS(C)(=O)=O)CC1 ? Thanks!
1.52

Fill in reported activity change, negative = inhibition for this entry: N[C@@H]1CCN(O)C1=O
18.2

====

- target entity: Rap guanine nucleotide exchange factor 3 (Homo sapiens) (UniProt O95398)
- Sequence (O95398 whole entry, looked up): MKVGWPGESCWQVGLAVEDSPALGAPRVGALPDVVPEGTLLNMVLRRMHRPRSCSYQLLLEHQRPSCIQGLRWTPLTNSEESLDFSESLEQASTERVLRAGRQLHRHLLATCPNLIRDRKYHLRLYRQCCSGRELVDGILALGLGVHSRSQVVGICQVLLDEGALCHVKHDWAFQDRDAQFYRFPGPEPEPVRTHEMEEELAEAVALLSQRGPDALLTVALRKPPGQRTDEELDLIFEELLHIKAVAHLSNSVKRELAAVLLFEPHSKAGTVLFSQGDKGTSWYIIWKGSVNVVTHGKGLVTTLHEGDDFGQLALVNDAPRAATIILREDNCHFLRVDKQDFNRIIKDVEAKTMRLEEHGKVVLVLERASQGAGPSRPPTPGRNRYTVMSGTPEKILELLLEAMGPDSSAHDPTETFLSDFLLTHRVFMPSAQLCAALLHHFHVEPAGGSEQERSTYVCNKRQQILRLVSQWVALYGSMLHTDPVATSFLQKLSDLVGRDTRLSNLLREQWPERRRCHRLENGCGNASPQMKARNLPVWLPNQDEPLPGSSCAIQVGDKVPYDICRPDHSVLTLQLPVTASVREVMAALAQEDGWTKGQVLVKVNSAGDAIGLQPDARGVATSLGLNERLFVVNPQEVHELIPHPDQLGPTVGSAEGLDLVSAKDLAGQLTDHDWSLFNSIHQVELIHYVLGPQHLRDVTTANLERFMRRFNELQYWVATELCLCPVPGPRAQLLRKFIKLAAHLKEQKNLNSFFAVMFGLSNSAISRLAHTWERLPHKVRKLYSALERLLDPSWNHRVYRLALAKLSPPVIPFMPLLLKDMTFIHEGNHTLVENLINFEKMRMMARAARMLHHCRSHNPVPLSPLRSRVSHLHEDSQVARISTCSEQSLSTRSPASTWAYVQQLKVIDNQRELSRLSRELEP
- experiment summary: Confirmatory qHTS for antagonist of cAMP-regulated guanine nucleotide exchange factor 3 (EPAC1) (AID 1645880); also: nearly all actives have a fitted effect of over 55% in size
- experimental parameters: EPAC1 Rap1B-BODIPY-GDP exchange, fluorescence; series mostly up to 115 µM
Records with an inconclusive call do not appear. Calls of active or inactive are those of the source. Calls come from the whole dose curve; as a rule, active = well fitted inhibition curve with a large enough effect; inconclusive = small, poorly fitted or top-dose-only effect; inactive = no such curve, though single readings can be large or run the other way.
Response enum: y (active), n (inactive)

Record lookup: outcome of this test for CCOC(=O)[C@@]12C[C@@H]1/C(=N/O)c1ccccc1O2 ?
n

For O=C(Nc1ccccc1C(=O)OCc1cc(=O)n2c3c(sc2n1)CCCC3)c1ccc(F)cc1 , what call appears in the results of this test?
n

Status in this test for CCn1ccnc1C[C@@H]1COc2ccccc2O1 ?
n

State the result this test recorded for C#C[C@]1(OC(C)=O)CC[C@H]2[C@@H]3CCC4=CC(=O)CC[C@@H]4[C@H]3CC[C@@]21C .
n

What outcome does the record of this test show for O=C(O)c1c(-c2ccccc2)oc2ccc(OCc3ccc(Cl)c(Cl)c3)cc12 ?
y

Can you look up the reported call for CCOC(=O)c1ccc(NC(=O)CSc2nc(-c3ccc(OC)cc3)cc(C(F)(F)F)c2C#N)cc1 for me?
n

Per the assay record, what outcome was assigned to CN(C)CCCSC(=N)N ?
n

Short answer needed: outcome of this test for CC1(COc2ccc(C[C@H]3SC(=O)NC3=O)cc2)CCCCC1 ?
y

For this molecule, state the assay outcome: S=C(S)O[C@@H]1C[C@@H]2C[C@H]1[C@@H]1CCC[C@H]21
n

Short answer needed: outcome of this test for C=CC(C)(C)c1[nH]c2ccccc2c1C1=C(O)C(=O)C(c2c[nH]c3c(CC=C(C)C)cccc23)=C(O)C1=O ?
y

# fetch the recorded call for Cc1sc(N)c(C(=O)c2cccc(C(F)(F)F)c2)c1C here
n

Identify the outcome logged in this assay for the molecule shown: COC(=O)CCC(=O)OC1(C)C(=O)C=C2C=C(C3CC3)N(CCCOC(C)C)C=C2C1=O (configuration not stated)
n

What did this assay record as the result for CCCCCCc1cc2cc(-c3cn4c(n3)sc3cc(OC)ccc34)c(=O)oc2cc1O ?
n

Assay result, entry CN1[C@@H]2CC(OC(=O)[C@H](CO)c3ccccc3)C[C@@H]1[C@H]1O[C@H]12 (some centres not stated) — outcome?
n

Would you mind telling me which call this test gave CCC(=O)N[C@@H]1Cc2ccccc2[C@@H](c2ccccc2)C1 ?
n

I'd appreciate the recorded outcome for COc1cc(CNC(=O)CCCC/C=C\C(C)C)ccc1O from this test.
n

Dear colleague, could you share the recorded outcome for CCOC(=O)C1=C(C)NC(C)=C(C(=O)OC)[C@H]1c1cccc([N+](=O)[O-])c1 when you have a moment?
n

Call for entry CC[C@]1(c2ncc[nH]2)Cc2ccccc2O1 :
n

Short answer needed: outcome of this test for C[C@@H](/C=C\c1cccc(Oc2ccc(F)cc2)c1)N(O)C(N)=O ?
n

Each molecule tested received a call. Report the one for CC[C@H](C)C(=O)O[C@H]1CCC=C2C=C[C@H](C)[C@H](CC[C@@H]3C[C@H](O)CC(=O)O3)[C@H]21 .
n

Query: recorded result category for O=C(O)c1ccccc1-c1c2cc(I)c(=O)c(I)c-2oc2c(I)c(O)c(I)cc12 in this test
n

For Nc1c(S(=O)(=O)O)cc(Nc2ccc(Nc3nc(Cl)nc(Nc4ccc(S(=O)(=O)O)cc4)n3)c(S(=O)(=O)O)c2)c2c1C(=O)c1ccccc1C2=O , what call appears in the results of this test?
y

====

Give measured activity change, negative = inhibition for each item. Keep answers brief.
- target entity: Guanidinoacetate N-methyltransferase (Homo sapiens) (UniProt Q14353)
- experiment summary: Confirmatory Screen for Target Class Profiling of Small Molecule Inhibitors of Methyltransferases (AID 1745852); also: % is scaled to controls: 0 for no effect and ±100 for the full control effect
- experimental parameters: MTase-Glo luminescence, SAH detection, recombinant enzyme; at 57.3 µM (top of the series) unless noted

# lookup: Guanidinoacetate N-methyltransferase (Homo sapiens) (UniProt Q14353) activity change, negative = inhibition, key = CN(C)CCNC(=O)c1cccn2c(=O)c3cc4ccccc4cc3nc12
0.968% [at 12.7 µM]

Determine reported activity change, negative = inhibition for CN1CCN(C(=O)c2ccc(Nc3nccc(-c4cccs4)n3)cc2Cl)CC1 ; test system: Guanidinoacetate N-methyltransferase (Homo sapiens) (UniProt Q14353).
0%

Under Guanidinoacetate N-methyltransferase (Homo sapiens) (UniProt Q14353): report activity change, negative = inhibition of COc1cc(O)c(C(=O)CCc2ccc(O)cc2)c(O[C@@H]2O[C@H](CO)[C@@H](O)[C@H](O)[C@H]2O)c1 .
-2.33% [at 29.8 µM]

Lab note: Guanidinoacetate N-methyltransferase (Homo sapiens) (UniProt Q14353) assay, enter activity change, negative = inhibition for Nc1ccc(-c2cnc(N)c(-c3ccc(Cl)cc3)c2)cn1 here
-1.94%

Enter recorded activity change, negative = inhibition with Guanidinoacetate N-methyltransferase (Homo sapiens) (UniProt Q14353) for C=C1C(=O)O[C@@H]2CC(C)=C([C@@H](C)CCCO)[C@@H](OC(=O)C(C)C)[C@H]12 here.
0%

Identify measured activity change, negative = inhibition obtained with Guanidinoacetate N-methyltransferase (Homo sapiens) (UniProt Q14353) for CN(C)CCCCCCNC(=O)c1cccc(-c2cc(O)c3ncccc3c2)c1 .
6.43%

Provide measured activity change, negative = inhibition on Guanidinoacetate N-methyltransferase (Homo sapiens) (UniProt Q14353) for COc1cc2nc(N3CCN(C)CC3)nc(NC3CCN(Cc4ccccc4)CC3)c2cc1OC please.
9.72%
